Would you kindly list inhibition for each of these compounds?
target: Single-strand selective monofunctional uracil DNA glycosylase (Homo sapiens) (UniProt Q53HV7); details: Compound Concentration 10.0 uM, Hit No;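 note: enzymatic SMUG1 assay coupled with APE1, reading fluorescence at 594 nm released when a quenched double-stranded DNA oligonucleotide substrate is cleaved and separated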
Sequence (Q53HV7 whole entry): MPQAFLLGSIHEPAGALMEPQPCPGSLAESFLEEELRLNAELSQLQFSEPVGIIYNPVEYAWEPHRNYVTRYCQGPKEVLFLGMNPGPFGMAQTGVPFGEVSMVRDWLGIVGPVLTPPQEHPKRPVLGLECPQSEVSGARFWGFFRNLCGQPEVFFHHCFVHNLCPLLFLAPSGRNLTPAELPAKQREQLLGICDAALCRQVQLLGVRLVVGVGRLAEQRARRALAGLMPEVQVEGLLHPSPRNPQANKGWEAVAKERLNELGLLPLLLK
Description: Inhibition of SMUG1 by quantifying inhibition of SMUG1-mediated cleavage and dissociation of quenched duplex DNA oligonucleotides, measured as fluorescence at 594 nm. To generate a functional strand incision and increase turn-over this assay is coupled to APE1.
Report as a plain number; the unit % is understood.

Data request: Give the measured inhibition of NC1(c2ccc(-c3nc4c(O)ccnn4c3-c3ccccc3)cc2)CCC1 .
Data returned: 19.3

Data request: Can you share its inhibition? I mean this compound: COc1cccc(CNC(=O)c2nc3scc(CN(C)Cc4ccccc4)c3c(=O)[nH]2)c1
Data returned: 12.8

Data request: // inhibition lookup, key: COc1cc(-c2cncc(-c3ccc(N4CCN(C(C)C)CC4)cc3)c2C)cc(F)c1C(N)=O
Data returned: 31.3

Data request: Sample O=C(O)COc1cccc(CN(Cc2ccc(-n3cccn3)cc2)S(=O)(=O)c2cccnc2)c1 — what was its inhibition?
Data returned: -3.28

Data request: Please look up its inhibition: CC(C)Cc1ccc([C@@H](C)C(=O)NS(C)(=O)=O)cc1
Data returned: 0.354

Data request: Query: inhibition; subject: CN(C)S(=O)(=O)c1ccc(NC(=S)N2CCC(C(O)(c3ccccc3)c3ccccc3)CC2)cc1
Data returned: 3.26

Data request: Reported inhibition, compound CCCN(CCC)CCc1cccc2c1CC(=O)N2 : ____
Data returned: -5.12

Data request: Which inhibition reading was recorded for the compound COc1ccc(CC[C@@H](OC(=O)[C@H]2CCCCN2C(=O)[C@@H](c2cc(OC)c(OC)c(OC)c2)C2CCCCC2)c2cccc(OCCN3CCOCC3)c2)cc1OC ?
Data returned: 19.6

Data request: What value of inhibition has been recorded for this entry: CC(C)(C#Cc1ccc(NC(=O)COc2ccccc2C(=O)c2ccccc2)c(Cl)c1)C(=O)O
Data returned: 12.2

Data request: Reported inhibition, compound O=c1ccc2c(OCCCCc3ccccc3)c3ccoc3cc2o1 : ____
Data returned: 0.0989

Data request: What value of inhibition has been reported for the following compound? CC1=C(C#N)C(c2ccc3[nH]nc(C)c3c2)C(C#N)=C(C)N1
Data returned: 17.6

Data request: Recorded inhibition of CCOc1ccc(S(=O)(=O)Nc2ccc(Cl)cc2C#Cc2cnc(C(=O)O)cc2OC)c2ncccc12 , please.
Data returned: 5.88

Data request: Returns the measured inhibition for the input compound. Input: N=C(N)NCCC[C@H](NC(=O)C12CC3CC(CC(C3)C1)C2)C(=O)N[C@@H](Cc1ccccc1)C(N)=O
Data returned: -6

Data request: Quick one: inhibition of CC[S+]([O-])c1nc(-c2cccc(OCc3ccccc3)c2)cc(C(F)(F)F)n1 (centres undefined) ?
Data returned: 4.67

Data request: Please give the measured inhibition for this compound: C[C@@H]1C[C@H](C)CN(c2ncc(Cl)c(Nc3ccc4c(c3)cc(OC(C)(C)C(=O)O)c(=O)n4C)n2)C1
Data returned: 17.6

Data request: Name the recorded inhibition for C[C@H](NC(=O)Nc1cc2[nH]ncc2c(CO)n1)c1ccccn1 .
Data returned: 21.2

Data request: Which value of inhibition has been reported for CCc1nc2c(o1)CC(c1ccc(C)cc1C)CC2=O (centres undefined) in the records?
Data returned: 5.18

Data request: Requested read-out: inhibition. Entry: CCOC(=O)c1ccc(N2C(=O)C(O)=C(C(=O)c3ccc(OC)cc3)C2c2ccc(F)cc2)cc1 (centres undefined)
Data returned: 1.4

Data request: Requested field: inhibition. Item: OC[C@H]1O[C@@H](n2cnc3c(NC4CCCC4)ncnc32)[C@H](O)[C@@H]1O
Data returned: -9.38
